Numbers sourced from paper PMC5486114.

- target: Human recombinant FGF-1 (Homo sapiens, UniProt P05230)
- Construct: Human recombinant FGF-1 consisting of 141 residues; purchased Peprotech; host or cells: E. coli
- Sequence (P05230 with tags, fused parts or gaps limits assumed): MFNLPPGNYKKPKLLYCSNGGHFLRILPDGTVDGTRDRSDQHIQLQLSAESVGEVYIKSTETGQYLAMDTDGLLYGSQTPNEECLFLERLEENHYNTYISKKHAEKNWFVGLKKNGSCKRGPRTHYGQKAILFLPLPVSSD
- measurementNotes: STD-NMR initial growth rates (STD0) of trisaccharides in presence of FGF-1
- Type: binding
- measurementConditions: relative to largest anomeric STD0 of the compound (=100)
measuredMetric: Relative STD0 H1-B

Please review the entries below; each comes with its answer.
molSmiles: CC(C)O[C@H]1O[C@H](COS(=O)(=O)O)[C@@H](O[C@@H]2O[C@@H](C(=O)O)[C@@H](O[C@H]3O[C@H](CO)[C@@H](O)[C@H](O)[C@H]3NS(=O)(=O)O)[C@H](O)[C@H]2OS(=O)(=O)O)[C@H](O)[C@H]1NS(=O)(=O)O
resultNumber: 100

molSmiles: CC(=O)N[C@H]1[C@@H](OC(C)C)O[C@H](CO)[C@@H](O[C@@H]2O[C@@H](C(=O)O)[C@@H](O[C@H]3O[C@H](CO)[C@@H](O)[C@H](O)[C@H]3NS(=O)(=O)O)[C@H](O)[C@H]2OS(=O)(=O)O)[C@@H]1O
resultNumber: 99

I. CC(=O)N[C@H]1[C@@H](OC(C)C)O[C@H](COS(=O)(=O)O)[C@@H](O[C@@H]2O[C@@H](C(=O)O)[C@@H](O[C@H]3O[C@H](CO)[C@@H](O)[C@H](O)[C@H]3NS(=O)(=O)O)[C@H](O)[C@H]2OS(=O)(=O)O)[C@@H]1O
II. CC(C)O[C@H]1O[C@H](CO)[C@@H](O[C@@H]2O[C@@H](C(=O)O)[C@@H](O[C@H]3O[C@H](CO)[C@@H](O)[C@H](O)[C@H]3NS(=O)(=O)O)[C@H](O)[C@H]2OS(=O)(=O)O)[C@H](O)[C@H]1NS(=O)(=O)O
IN: Look at I and II . Which one has the lower recorded Relative STD0 H1-B number? Identify your pick by its label.
OUT: II
(II: 48, I: 100)
